// provenance: PubChem BioAssay

Below, each entry is listed alongside its reported inhibition.
- System Name: ATP-binding cassette sub-family B member 6 (Homo sapiens) (UniProt Q9NP58)
- Sequence (Q9NP58 whole entry, looked up): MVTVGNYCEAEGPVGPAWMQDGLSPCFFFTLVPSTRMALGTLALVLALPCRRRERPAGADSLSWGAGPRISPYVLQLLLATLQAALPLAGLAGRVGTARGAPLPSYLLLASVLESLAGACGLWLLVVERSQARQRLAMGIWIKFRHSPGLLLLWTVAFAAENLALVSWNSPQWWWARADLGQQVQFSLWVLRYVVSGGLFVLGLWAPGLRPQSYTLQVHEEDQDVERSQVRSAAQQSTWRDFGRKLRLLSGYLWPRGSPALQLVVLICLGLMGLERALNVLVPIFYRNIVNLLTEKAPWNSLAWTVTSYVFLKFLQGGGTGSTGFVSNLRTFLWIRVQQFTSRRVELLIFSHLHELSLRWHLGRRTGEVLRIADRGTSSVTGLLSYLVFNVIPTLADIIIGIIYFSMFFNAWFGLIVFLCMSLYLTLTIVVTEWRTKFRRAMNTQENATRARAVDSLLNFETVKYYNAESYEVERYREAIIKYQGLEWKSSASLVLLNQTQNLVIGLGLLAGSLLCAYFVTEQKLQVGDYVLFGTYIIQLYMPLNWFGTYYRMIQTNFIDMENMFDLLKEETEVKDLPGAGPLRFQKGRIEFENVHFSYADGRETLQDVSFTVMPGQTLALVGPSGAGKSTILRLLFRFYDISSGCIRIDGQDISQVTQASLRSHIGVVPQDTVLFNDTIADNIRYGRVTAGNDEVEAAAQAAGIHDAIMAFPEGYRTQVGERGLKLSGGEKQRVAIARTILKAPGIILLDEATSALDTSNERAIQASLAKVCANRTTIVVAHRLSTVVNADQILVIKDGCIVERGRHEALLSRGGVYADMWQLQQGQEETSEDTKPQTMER
- Protocol Description: blockers of ABCB6-driven porphyrin uptake – K562-ABCB6 cells, flow cytometry, validation set, pilot screen (AID 588550);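 note: 0% = DMSO wells and 100% = benzethonium chloride 70 µM positive control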
- Test Settings: K562-ABCB6 porphyrin accumulation, 1 h, at 10 µM, hits give high values
The source made the active and inactive calls.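 Rule for the calls: active = inhibition above the screen-wide mean plus 3 SD, about 51%; inactive = the rest.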
Measurement Kind: inhibition

* CC(=O)NC(Cc1c[nH]c2ccccc12)C(=O)N/N=C/c1ccccc1 (stereo unspecified) | -12% (inactive)
* COc1ccc(C2OC[C@H]3O[C@H](O)[C@H](NC(C)=O)[C@@H](O)[C@@H]3O2)cc1 (stereo partly specified) | 12% (inactive)
* CN(C)CCN(Cc1ccccc1)c1ccccn1 | 113% (active)
* Cn1cc(/C=C/C(=O)c2ccccc2)c2ccccc21 | 4% (inactive)
* CCN(CC)CCNC(=O)c1cc(Cl)c(N)cc1OC | -10% (inactive)
* CCOC(=O)c1ccc(NC(=S)NCCc2ccccc2F)cc1 | -3% (inactive)

----------
- Protocol Description: calorie-restriction mimetic ROS inhibitors, yeast – validation compound set, pilot screen (AID 2706);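 note: yeast exposed to compound for one week at 30 degrees C before staining; 100% = mean of all compound wells on the same plate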
- Test Settings: S. cerevisiae aging, superoxide DHE fluorescence; at 10 µM; hits give low values
Below, each entry is listed alongside its reported superoxide response (% of plate).
Measurement Kind: superoxide response (% of plate) (%)

• COc1cccc2cc(-c3ccccc3)c(=O)oc12 = 88.6
• COc1ccc2cc(C3(C)NC(=O)NC3=O)ccc2c1 (stereo unspecified) = 104
• Cc1ccc(C(=O)COC(=O)c2cnccn2)cc1[N+](=O)[O-] = 97.6
• CCCN1CCC(NC(=O)Nc2ccc(Br)cc2)CC1 = 94.7
• CC(=O)OCC(=O)[C@@]1(O)CC[C@H]2[C@@H]3CCC4=CC(=O)CC[C@]4(C)[C@H]3[C@@H](O)C[C@@]21C = 101
• Cc1ccc(OCCCCn2ccnc2C)c(C)c1 = 98.5

----------
- System Name: Beta-2 adrenergic receptor (Homo sapiens)
- Protocol Description: agonist-induced loss of surface beta2AR – cell-based, FAP fluorogen, flow cytometry, validation set, pilot screen (AID 504459);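 note: agonist-driven loss of surface beta2AR via internalization measured by FAP dye flow cytometry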
- Test Settings: Am2.2-beta2AR cells, at 10 µM
Activity calls are given as the source filed them.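 Rule for the calls: active = percent response above 42, roughly 3 SD of non-fluorescent test compounds; inactive = the rest.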
Classes used: YES (active), NO (inactive)

• CC(C(=O)O)c1ccc(-c2ccccc2)c(F)c1 (configuration not stated) = NO
• COc1ccc2cc(C(=O)OC(C)C)sc(=O)c2c1OC = NO
• COc1ccc(C2OC(=O)Cc3cc(OC)c(OC)cc32)cc1 (configuration not stated) = NO
• COC(=O)C1=C(C)NC(C)=C(C(=O)OCCN(C)Cc2ccccc2)C1c1cccc([N+](=O)[O-])c1 (configuration not stated) = NO
• COc1ccc(Cc2noc(CN(C)CC3(N4CCOCC4)CCCCC3)n2)cc1OC = NO
• CC(C)CN(C)Cc1c(C(=O)N2CCc3ccccc3C2)nc2ccc(Cl)cn12 = NO
• Cc1cc(/C=N/O)c(C)n1-c1ccc(Br)cc1 = NO
• Cc1ccc(C(=O)Nc2ccccc2C(=O)NC(C(=O)O)C(C)C)cc1 (configuration not stated) = NO
• NC(=O)C1CCCNC1 (configuration not stated) = NO
• Cc1ccccc1-c1nn(-c2ccc(F)cc2F)cc1CNCCN(C)C = NO
• C[C@H]([C@@H](N)C(=O)N[C@@H](C(=O)O)[C@@H]1O[C@H](n2ccc(=O)[nH]c2=O)[C@@H](O)[C@H]1O)[C@@H](O)c1ccc(O)cn1 = NO
• COC(=O)C1=NN(C(=O)c2cccc(Br)c2)C(O)(c2ccc(Cl)cc2)C1 (configuration not stated) = NO
• CC/C(=C(\c1ccc(O)cc1)c1ccc(OCCN(C)C)cc1)c1ccccc1 = NO
• COC(=O)c1[nH]c(=O)c2ccccc2c1O = NO
• CCn1cc(CN2N=C(C)CC2c2ccccc2)c(C)n1 (configuration not stated) = NO
• COCC1CCCN(Cc2cn[nH]c2-c2cc3ccccc3o2)C1 (configuration not stated) = NO
• Cn1c(=O)c2c(ncn2CCO)n(C)c1=O = NO
• c1ccc(-c2ccc(C(c3ccccc3)n3ccnc3)cc2)cc1 (configuration not stated) = NO
• CC(C)=CCC/C(C)=C/CC/C(C)=N/O = NO
• CO[C@H]1C=CO[C@@]2(C)Oc3c(C)c(O)c4c(O)c(c(C=NN5CCN(C)CC5)c(O)c4c3C2=O)NC(=O)C(C)=CC=C[C@H](C)[C@H](O)[C@@H](C)[C@@H](O)[C@@H](C)[C@H](OC(C)=O)[C@@H]1C = NO
• Cc1ccc2c(c1C)NC(C(=O)O)C1CC=CC21 (configuration not stated) = YES
• Cc1cccc(Nc2ncccc2C(=O)O)c1C = NO

----------
- Protocol Description: TOR pathway LAP4-GFP level changes – S. cerevisiae, multiplex flow cytometry, primary screen (AID 1873)
- Test Settings: S. cerevisiae LAP4-GFP expression, 3 h, at 10 µM, hits give high values
Results filed as inconclusive are left out.
Below, each entry is listed alongside its reported GFP response vs DMSO.
Measurement Kind: GFP response vs DMSO (%)

* O=C(c1cc2cc(Br)ccc2o1)N1CCCC1 | 139
* OC12CCCCC1C(c1ccc3c(c1)OCO3)N(Cc1cccc(F)c1)CC2 (stereo unspecified) | 94
* COc1ccccc1/C=C/C(=O)c1c2c(c(C)[nH]c1=O)CCCC2 | 104
* COc1cc2c(cc1OC)C(c1ccc(-c3cc(Cl)ccc3Cl)o1)=NCC2 | 75.2
* C/C=C/c1ccc(OCCCCN2CC(C)CC(C)C2)c(OC)c1 (stereo unspecified) | 96.6
* CC(CN1c2ccccc2Sc2ccccc21)N(C)C (stereo unspecified) | 78.1
* CC(NCCc1ccc(O)cc1)C(O)c1ccc(O)cc1 (stereo unspecified) | 80.9
* C[C@]12CC[C@@H]3c4ccc(O)cc4CC[C@H]3[C@@H]1CCC2=O | 125
* c1ccc(CC2=NCCN2)cc1 | 103
* CC(=O)OCC(=O)[C@H]1CC[C@H]2[C@@H]3CCC4=CC(=O)CC[C@]4(C)[C@H]3CC[C@]12C | 73.2
* O=C(c1ccc(Cl)cc1)C1CCCN(C(=O)/C=C/c2ccccn2)C1 (stereo unspecified) | 137

----------
- Protocol Description: TOR pathway RTG branch CIT2 reporter changes – S. cerevisiae, GFP fusion, multiplex flow cytometry, primary screen (AID 1870);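 note: barcoded CIT2-GFP strain pooled with four other GFP strains with rapamycin as positive control; median GFP fluorescence per well over plate mean of DMSO wells so 100% = DMSO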
- Test Settings: S. cerevisiae CIT2-GFP expression, 3 h, at 10 µM, hits give high values
Peptide text beside a SMILES is read from it.
Below, each entry is listed alongside its reported percent response of DMSO control.
Measurement Kind: percent response of DMSO control (%)

• CC(=O)NC(CC(C)C)C(=O)NC(Cc1ccccc1)C(N)=O (stereo not drawn) (Ac-Leu-Phe-NH2; configuration not given here) = 98.6
• CC(C)OC(=O)c1ccc(NC(=O)c2cncc(Br)c2)cc1 = 98.6
• CN(C)CCOCCOc1ccc(Cl)cc1Br = 101
• C=C(C)C(=O)Nc1ccc(NC(C)C)cc1 = 97.6
• NC(=O)c1ncn([C@@H]2O[C@H](CO)[C@@H](O)[C@H]2O)c1O = 96.7
• O=C(O)CCCN1C(=O)NC2NC(=O)NC21 (stereo not drawn) = 101
• COc1ccc(/C=C/C(=O)c2cc3cccc(OC)c3oc2=O)cc1 = 103
• c1ccc(Cn2nnc3cnccc32)cc1 = 104
• COc1ccccc1NC(=O)C12CCC(C)(C(=O)C1)C2(C)C (stereo not drawn) = 102
• O=c1cc(-c2ccccc2)oc2cc(OCc3ccccc3)cc(O)c12 = 108
• Cc1ccc2c(c1)C(C)(C)[C@]1(C)NC(=O)CCN21 = 92
• OC(CCCN1CCC(O)(c2ccc(Cl)cc2)CC1)c1ccc(F)cc1 (stereo not drawn) = 108
• O=C(O)[C@@H](O)c1ccccc1 = 102
• O=C(O)CCCCCN=C1CCc2ccccc2N1 = 101
• CNCCC(Oc1ccc(C(F)(F)F)cc1)c1ccccc1 (stereo not drawn) = 107
• CC(=O)[C@H]1CC[C@H]2[C@@H]3C[C@H](C)C4=CC(=O)CC[C@]4(C)[C@H]3[C@@H](O)C[C@]12C = 102
• O=C(O)c1ccccc1Nc1cccc(C(F)(F)F)c1 = 88.2
• C[C@]12CC[C@@H]3c4ccc(O)cc4CC[C@H]3[C@@H]1C[C@@H](O)[C@@H]2O[C@@H]1O[C@H](C(=O)O)[C@@H](O)[C@H](O)[C@H]1O = 108
• COC(=O)[C@H]1[C@H]2C[C@@H]3c4[nH]c5cc(OC)ccc5c4CCN3C[C@H]2C[C@@H](OC(=O)c2ccc(N)cc2)[C@@H]1OC = 111
• Cc1cccc(Oc2coc3cc(OC(=O)c4cncc(Br)c4)ccc3c2=O)c1 = 95.8
• N/C(=N\OC(=O)c1cccc(Br)c1)c1ccncc1 = 106
• CCCNC(C)C(=O)Nc1ccccc1C (stereo not drawn) = 101
• CC(=O)NC(Cc1ccccc1)C(=O)OCC(=O)c1ccccc1 (stereo not drawn) = 88.6
